Data provenance: PubChem BioAssay (NCI)

system: OVCAR-8 ovarian; test: NCI-60 one-dose screen, 48 h; settings: 10 µM unless noted
This is part of a sample that, as a whole, favours compounds with a hit. Of some 83,000 tested, about 20% had one in any assay. Active and inactive are the calls of the source. The calls were made as follows: active = growth percent below 10; inactive = the rest.
Labels: label 1 = active, label 0 = inactive

compound=CCCCCOc1ccc(/C=N/Nc2cc(C)nc3ccc(Br)cc23)cc1 class="label 1"
compound=C=Cc1cc[n+](CCCCCCCCCCCC)cc1 class="label 0"
compound=COc1ccc(-c2nc(SCC(C)C)nc(N/N=C(/C)c3ccc(OC)c(OC)c3)c2C#N)cc1 class="label 0"
compound="CCC(C)C(N)C(=O)NNc1n[nH]c(=S)n1N (stereo not given)" class="label 0"
compound=CN1CCN(CCCNc2nccc(-c3c(-c4ccc(F)c(O)c4)nc4sccn34)n2)S1(=O)=O class="label 0"
compound=Cc1n[nH]c(C)c1-c1c(C)n[nH]c1C class="label 0"
compound=C#CC(=O)Nc1cccc2c1cc(C)n2-c1nc2c(c(NCc3ccccc3)n1)CCCC2 class="label 1"
compound=CCNC(=O)c1[nH]cc(-c2ccc(OC)cc2)c1-c1cc(OC)cc(OC)c1 class="label 0"
compound="Clc1ccc(C2CC(c3cccc(Nc4ccncc4)c3)=NN2c2ccc(Cl)cc2)cc1 (stereo not given)" class="label 1"
compound=CC(=O)Nc1ccc(C(=O)Nc2cc(-c3ccccc3)ccc2N)cc1 class="label 0"
